meta.source: ChEMBL document CHEMBL3407416

Endpoint Label: IC50 (µM)
// note: answer is a bare numeric in µM

Which IC50 is reported with Voltage-gated inwardly rectifying potassium channel KCNH2 (Homo sapiens, UniProt Q12809) for this entry: C[C@H](c1cc(C(=O)N(C)C)cc2c(=O)cc(N3CCOCC3)oc12)N(C)c1cc(F)cc(F)c1 ?
19

###

test: Apparent permeability from apical to basolateral side of human Caco2 cells; format: ADME, cell-based; conditions: Caco-2, read-out: permeability
Endpoint Label: Papp A→B (nm/s)
// note: answer is a bare numeric in nm/s

Entry C[C@H](c1cc(C(=O)N(C)CCO)cc2c(=O)cc(N3CCOCC3)oc12)N(C)c1cc(F)cc(F)c1 has what Papp A→B?
70

Entry C[C@@H](Nc1cc(F)cc(F)c1)c1cc(C(=O)N(C)C)cc2c(=O)cc(N3CCOCC3)oc12 has what Papp A→B?
80

Entry CC(Nc1cccc(F)c1F)c1cc(C(=O)N(C)C)cc2c(=O)cc(N3CCOCC3)oc12 (racemic) has what Papp A→B?
130

Entry CC(Nc1cc(F)ccc1F)c1cc(C(=O)N(C)C)cc2c(=O)cc(N3CCOCC3)oc12 (racemic) has what Papp A→B?
120

Entry COCCNC(=O)c1cc(C(C)Nc2cc(F)cc(F)c2)c2oc(N3CCOCC3)cc(=O)c2c1 (racemic) has what Papp A→B?
2.8

Entry C[C@@H](Oc1cc(F)cc(F)c1)c1cc(C(=O)N(C)C)cc2c(=O)cc(N3CCOCC3)oc12 has what Papp A→B?
310

Entry CC(Nc1cc(F)cc(F)c1)c1cc(C(=O)N(C)CCO)cc2c(=O)cc(N3CCOCC3)oc12 (racemic) has what Papp A→B?
10

Entry CC(Nc1cc(F)cc(F)c1)c1cc(C(=O)N2CCOCC2)cc2c(=O)cc(N3CCOCC3)oc12 (racemic) has what Papp A→B?
48

###

target: Phosphatidylinositol 4,5-bisphosphate 3-kinase catalytic subunit alpha isoform (Homo sapiens, UniProt P42336); assay: Inhibition of human recombinant PI3Kalpha using PIP2 by Kinase-Glo Plus assay
Sequence (P42336 whole entry, canonical isoform): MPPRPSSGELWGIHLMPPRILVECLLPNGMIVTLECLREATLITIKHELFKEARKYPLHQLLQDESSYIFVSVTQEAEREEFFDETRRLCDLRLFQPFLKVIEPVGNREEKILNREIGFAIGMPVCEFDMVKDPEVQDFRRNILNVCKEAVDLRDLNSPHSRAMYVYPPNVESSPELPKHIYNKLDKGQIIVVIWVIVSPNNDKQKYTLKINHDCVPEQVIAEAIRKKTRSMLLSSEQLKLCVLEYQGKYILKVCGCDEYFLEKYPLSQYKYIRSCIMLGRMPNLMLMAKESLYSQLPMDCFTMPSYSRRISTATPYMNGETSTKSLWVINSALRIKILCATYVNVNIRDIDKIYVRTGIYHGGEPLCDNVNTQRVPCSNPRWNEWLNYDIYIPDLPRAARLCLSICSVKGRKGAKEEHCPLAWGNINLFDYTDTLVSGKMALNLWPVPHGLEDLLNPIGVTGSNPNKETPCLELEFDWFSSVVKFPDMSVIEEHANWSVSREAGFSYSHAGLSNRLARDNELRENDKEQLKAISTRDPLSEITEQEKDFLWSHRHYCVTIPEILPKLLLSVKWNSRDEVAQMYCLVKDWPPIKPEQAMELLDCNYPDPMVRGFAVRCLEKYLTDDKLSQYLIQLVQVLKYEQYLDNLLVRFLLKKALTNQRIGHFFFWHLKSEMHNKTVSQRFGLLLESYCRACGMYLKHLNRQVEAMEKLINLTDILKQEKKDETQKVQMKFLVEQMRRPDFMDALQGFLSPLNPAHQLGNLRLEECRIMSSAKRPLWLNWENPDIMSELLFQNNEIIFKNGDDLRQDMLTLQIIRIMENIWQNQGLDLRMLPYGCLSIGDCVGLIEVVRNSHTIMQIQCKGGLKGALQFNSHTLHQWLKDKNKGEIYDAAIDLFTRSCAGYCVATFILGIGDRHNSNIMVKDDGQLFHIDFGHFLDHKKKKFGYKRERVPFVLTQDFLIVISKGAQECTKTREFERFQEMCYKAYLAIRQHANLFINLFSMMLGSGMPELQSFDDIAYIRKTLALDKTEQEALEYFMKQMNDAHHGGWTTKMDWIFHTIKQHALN
Kindly supply the reported log10 of IC50 values for the records listed here.
The common logarithm of IC50 in nM is what is listed.

Entry CC(Nc1cccc(F)c1)c1cc(C(=O)N(C)C)cc2c(=O)cc(N3CCOCC3)oc12 (racemic) has what log10 of IC50?
2.34

Entry CC(Nc1cc(F)cc(F)c1)c1cc(C(=O)N2CCOCC2)cc2c(=O)cc(N3CCOCC3)oc12 (racemic) has what log10 of IC50?
2.48

Entry CC(Nc1cc(F)cc(F)c1)c1cc(C(=O)N2CCCCC2)cc2c(=O)cc(N3CCOCC3)oc12 (racemic) has what log10 of IC50?
2.30

Entry CNC(=O)c1cc([C@@H](C)Nc2cc(F)cc(F)c2)c2oc(N3CCOCC3)cc(=O)c2c1 has what log10 of IC50?
1.26

Entry COCCN(C)C(=O)c1cc(C(C)Nc2cc(F)cc(F)c2)c2oc(N3CCOCC3)cc(=O)c2c1 (racemic) has what log10 of IC50?
2.46

Entry CCN(CC)C(=O)c1cc(C(C)Nc2cc(F)cc(F)c2)c2oc(N3CCOCC3)cc(=O)c2c1 (racemic) has what log10 of IC50?
2.18

Entry C[C@H](c1cc(C(=O)N(C)C)cc2c(=O)cc(N3CCOCC3)oc12)N(C)c1cc(F)cc(F)c1 has what log10 of IC50?
2.45

Entry COc1cc(F)cc(NC(C)c2cc(C(=O)N(C)C)cc3c(=O)cc(N4CCOCC4)oc23)c1 (racemic) has what log10 of IC50?
2.20

Entry C[C@@H](Nc1cc(F)c(F)c(F)c1)c1cc(C(=O)N(C)C)cc2c(=O)cc(N3CCOCC3)oc12 has what log10 of IC50?
2.04

Entry CC(Nc1cc(F)cc(F)c1)c1cc(C(=O)N2CCCC2)cc2c(=O)cc(N3CCOCC3)oc12 (racemic) has what log10 of IC50?
1.99

Entry CC(Nc1cccc(F)c1F)c1cc(C(=O)N(C)C)cc2c(=O)cc(N3CCOCC3)oc12 (racemic) has what log10 of IC50?
2.57

Entry CC(Nc1ccc(F)cc1)c1cc(C(=O)N(C)C)cc2c(=O)cc(N3CCOCC3)oc12 (racemic) has what log10 of IC50?
2.91

Entry C[C@@H](Nc1ccc(F)c(F)c1)c1cc(C(=O)N(C)C)cc2c(=O)cc(N3CCOCC3)oc12 has what log10 of IC50?
2.23

Entry C[C@H](Nc1cc(F)cc(F)c1)c1cc(C(=O)N(C)C)cc2c(=O)cc(N3CCO[C@@H](C)C3)oc12 has what log10 of IC50?
2.11

Entry CCN(C)C(=O)c1cc(C(C)Nc2cc(F)cc(F)c2)c2oc(N3CCOCC3)cc(=O)c2c1 (racemic) has what log10 of IC50?
2.04

Entry C[C@@H](Nc1cc(F)cc(Cl)c1)c1cc(C(=O)N(C)C)cc2c(=O)cc(N3CCOCC3)oc12 has what log10 of IC50?
1.40

Entry CN(C)C(=O)c1cc(CNc2cc(F)cc(F)c2)c2oc(N3CCOCC3)cc(=O)c2c1 has what log10 of IC50?
1.97

Entry C[C@H](c1cc(C(=O)N(C)CCO)cc2c(=O)cc(N3CCOCC3)oc12)N(C)c1cc(F)cc(F)c1 has what log10 of IC50?
2.26

Entry C[C@H](c1cc(C(=O)N2CCC(O)CC2)cc2c(=O)cc(N3CCOCC3)oc12)N(C)c1cc(F)cc(F)c1 has what log10 of IC50?
2.57

Entry CCNC(=O)c1cc(C(C)Nc2cc(F)cc(F)c2)c2oc(N3CCOCC3)cc(=O)c2c1 (racemic) has what log10 of IC50?
1.77

Entry C[C@@H](Nc1cccc(Cl)c1F)c1cc(C(=O)N(C)C)cc2c(=O)cc(N3CCOCC3)oc12 has what log10 of IC50?
1.45

Entry CC(Nc1cc(F)cc(F)c1)c1cc(C(=O)N(C)CCO)cc2c(=O)cc(N3CCOCC3)oc12 (racemic) has what log10 of IC50?
1.95

Entry CC(Nc1ccc(F)c(Cl)c1)c1cc(C(=O)N(C)C)cc2c(=O)cc(N3CCOCC3)oc12 (racemic) has what log10 of IC50?
2.23

###

biological target: Phosphatidylinositol 4,5-bisphosphate 3-kinase catalytic subunit gamma isoform (Homo sapiens, UniProt P48736); experiment: Inhibition of human recombinant PI3Kgamma using PIP2 by Kinase-Glo Plus assay
Sequence (P48736 whole entry, canonical isoform): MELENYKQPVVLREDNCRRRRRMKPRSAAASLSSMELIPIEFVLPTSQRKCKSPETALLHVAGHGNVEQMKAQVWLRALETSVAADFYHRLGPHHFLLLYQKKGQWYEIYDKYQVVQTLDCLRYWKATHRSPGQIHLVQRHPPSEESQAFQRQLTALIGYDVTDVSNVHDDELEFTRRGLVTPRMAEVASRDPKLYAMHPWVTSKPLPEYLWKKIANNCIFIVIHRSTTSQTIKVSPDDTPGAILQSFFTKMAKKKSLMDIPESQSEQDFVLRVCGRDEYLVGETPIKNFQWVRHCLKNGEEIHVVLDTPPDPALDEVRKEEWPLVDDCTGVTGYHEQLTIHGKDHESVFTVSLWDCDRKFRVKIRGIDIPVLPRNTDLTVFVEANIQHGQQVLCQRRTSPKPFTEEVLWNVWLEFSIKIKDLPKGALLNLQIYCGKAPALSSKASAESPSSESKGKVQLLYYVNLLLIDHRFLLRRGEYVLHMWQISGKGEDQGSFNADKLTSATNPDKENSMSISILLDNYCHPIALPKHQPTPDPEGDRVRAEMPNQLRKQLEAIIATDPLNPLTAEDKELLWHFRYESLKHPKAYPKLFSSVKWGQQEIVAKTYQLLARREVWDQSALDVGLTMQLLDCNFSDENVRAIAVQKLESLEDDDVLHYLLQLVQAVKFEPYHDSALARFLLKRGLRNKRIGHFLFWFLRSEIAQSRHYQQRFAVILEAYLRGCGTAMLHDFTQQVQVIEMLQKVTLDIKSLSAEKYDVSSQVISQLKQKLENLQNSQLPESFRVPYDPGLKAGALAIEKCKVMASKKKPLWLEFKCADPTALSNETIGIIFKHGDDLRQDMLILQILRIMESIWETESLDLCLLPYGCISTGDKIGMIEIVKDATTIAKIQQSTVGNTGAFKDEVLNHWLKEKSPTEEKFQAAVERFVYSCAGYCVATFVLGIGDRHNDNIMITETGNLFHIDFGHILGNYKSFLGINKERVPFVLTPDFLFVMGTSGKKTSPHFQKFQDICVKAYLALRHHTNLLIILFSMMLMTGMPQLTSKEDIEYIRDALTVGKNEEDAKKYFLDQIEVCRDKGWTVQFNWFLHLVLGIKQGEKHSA
Endpoint Label: IC50 (nM)
// note: answer is a bare numeric in nM

Entry CC(Nc1cccc(Cl)c1)c1cc(C(=O)N(C)C)cc2c(=O)cc(N3CCOCC3)oc12 (racemic) has what IC50?
700

Entry CCN(CC)C(=O)c1cc(C(C)Nc2cc(F)cc(F)c2)c2oc(N3CCOCC3)cc(=O)c2c1 (racemic) has what IC50?
1200

Entry CCNC(=O)c1cc(C(C)Nc2cc(F)cc(F)c2)c2oc(N3CCOCC3)cc(=O)c2c1 (racemic) has what IC50?
710

Entry CCN(C)C(=O)c1cc(C(C)Nc2cc(F)cc(F)c2)c2oc(N3CCOCC3)cc(=O)c2c1 (racemic) has what IC50?
930

Entry CC(Nc1cc(F)cc(F)c1)c1cc(C(=O)N2CCC(O)CC2)cc2c(=O)cc(N3CCOCC3)oc12 (racemic) has what IC50?
830

Entry CC(Nc1ccc(F)c(Cl)c1)c1cc(C(=O)N(C)C)cc2c(=O)cc(N3CCOCC3)oc12 (racemic) has what IC50?
1800

Entry CC(Nc1ccc(F)cc1)c1cc(C(=O)N(C)C)cc2c(=O)cc(N3CCOCC3)oc12 (racemic) has what IC50?
13000

Entry CC(Nc1cccc(F)c1F)c1cc(C(=O)N(C)C)cc2c(=O)cc(N3CCOCC3)oc12 (racemic) has what IC50?
4200

Entry C[C@H](c1cc(C(=O)N(C)CCO)cc2c(=O)cc(N3CCOCC3)oc12)N(C)c1cc(F)cc(F)c1 has what IC50?
1200

###

Kindly supply the reported logD values for the records listed here.
assay: Lipophilicity, log D of the compound at pH 7.4 by shake-flask method; type: physicochemical; conditions: buffer
Provide a numeric answer; units are not to be included.

Entry CC(Nc1cc(F)cc(F)c1)c1cc(C(=O)N2CCC(O)CC2)cc2c(=O)cc(N3CCOCC3)oc12 (racemic) has what logD?
1.8

Entry CC(Nc1cc(F)ccc1F)c1cc(C(=O)N(C)C)cc2c(=O)cc(N3CCOCC3)oc12 (racemic) has what logD?
1.8

Entry C[C@H](c1cc(C(=O)N(C)C)cc2c(=O)cc(N3CCOCC3)oc12)N(C)c1cc(F)cc(F)c1 has what logD?
2.4

Entry CC(Nc1cccc(F)c1)c1cc(C(=O)N(C)C)cc2c(=O)cc(N3CCOCC3)oc12 (racemic) has what logD?
1.9

Entry C[C@@H](Nc1cccc(Cl)c1F)c1cc(C(=O)N(C)C)cc2c(=O)cc(N3CCOCC3)oc12 has what logD?
2.3

Entry C[C@@H](Nc1ccc(F)c(F)c1)c1cc(C(=O)N(C)C)cc2c(=O)cc(N3CCOCC3)oc12 has what logD?
1.9

Entry CC(Nc1cc(F)cc(F)c1)c1cc(C(=O)N2CCCCC2)cc2c(=O)cc(N3CCOCC3)oc12 (racemic) has what logD?
3.1

Entry C[C@H](c1cc(C(=O)N2CCC(O)CC2)cc2c(=O)cc(N3CCOCC3)oc12)N(C)c1cc(F)cc(F)c1 has what logD?
2.4

Entry CC(c1cc(C(=O)N2CCCC2)cc2c(=O)cc(N3CCOCC3)oc12)N(C)c1cc(F)cc(F)c1 (racemic) has what logD?
3.1

Entry C[C@@H](Nc1cc(F)cc(Cl)c1)c1cc(C(=O)N(C)C)cc2c(=O)cc(N3CCOCC3)oc12 has what logD?
2.8
